# measurementProtocol: In-vitro cytotoxic effect on cultured L929 cells (MTT assay)
# Assay type: cell-based
# protocolConditions: mouse

structureAsSmiles	viability at 24 h, 50 μg/mL (%)
CC(C)[C@H](O)C(=O)/C(O)=C/[C@@H](N)/C=C\CCCC[C@H]1C=C[C@@H](O)C=C1	64.3

* * *

# measurementProtocol: In-vitro cytotoxic effect on cultured L929 cells (MTT assay)
# Type: cell-based
# protocolConditions: mouse

molecule	viability at 24 h, 12.5 μg/mL
CC(C)[C@H](O)C(=O)/C(O)=C/[C@@H](N)/C=C\CCCC[C@H]1C=C[C@@H](O)C=C1 [Compound of Formula II]	85.8%
